- Species on record: Homo sapiens
- ASSAY_SUMMARY: To identify inhibition of the IFN signalling (Jak-Stat) pathway via expression of an eGFP reporter gene under the control of an IFN-stimulated response element (ISRE) containing MxA promoter.
- Type: functional
- Parameters: scale not given: direction of the effect not stated beside the values
- CONDITION_LABEL: 30 µM
I'd be grateful if you could share measured Percent Effect for these entries.
Give bare numbers, in %.

Worked set:
O=C1N(CCCc2ccccc2)CCCC1(O)CNCc1ccccc1 (stereo not drawn)
-7.46
O=C(c1cccc2c1OCO2)N1CCCC(n2cccn2)C1 (stereo not drawn)
10.5

List reported Percent Effect for each of these compounds:
1. CCCc1n[nH]c(C2CN(Cc3nnc(C4CC4)o3)CCO2)n1 (stereo not drawn)
2. Cc1nn(CCO)c(C)c1CNC1CCC(C)(C)c2ccccc21 (stereo not drawn)

[3.77, 23.6]

List reported Percent Effect for each of these compounds:
1. CCn1ncc2c1CCCC2NCc1ccc(OC)c(C)c1 (stereo not drawn)
2. CCc1nnc(CN(C)c2nc(C3CCCC3)nc3c2cnn3C)o1
3. CC(=O)N1CCN(CC2CCOc3ccccc3C2)CC1 (stereo not drawn)
4. CC(C)Nc1nc(N2CCOCC2)nc2c1CN(CC(=O)N(C)C)CC2
5. Cc1nc(CN2CCOC(CNc3cccnn3)C2)cs1 (stereo not drawn)
6. Cc1nc[nH]c1CN1C[C@@H]2CC[C@H](C1)N(C(=O)CCNS(C)(=O)=O)C2

1: 0.115; 2: 7.5; 3: -1.92; 4: 15.8; 5: 3.75; 6: -7.69

List reported Percent Effect for each of these compounds:
1. O=C(c1cc[nH]n1)N1CCC(Nc2cccnn2)CC1
2. O=C1OC2(CCN(C3CCCOC3)CC2)CN1CCc1ccccc1 (stereo not drawn)
3. Cc1cccnc1NC(=O)NCc1ccc(N2CCNC(=O)C2)cc1
4. CC(C)c1nn(C)c(N(C)C)c1CNCc1ccc2c(c1)OCO2
5. CCS(=O)(=O)N1CCc2c(CN(C)Cc3ccco3)cncc2C1
6. Cc1nnc(NCC2(c3ccc(Cl)cc3Cl)CCOCC2)c(C#N)c1C
7. CC(C)c1nnc(NC(=O)NCc2ccnc(N(C)C)c2)s1
8. Cc1ncc2c(n1)CCN(C(=O)Cc1c(C)noc1C)C2

1. 5.31
2. 15.6
3. 5.74
4. -9
5. -0.516
6. 10.4
7. 30.7
8. -0.465

List reported Percent Effect for each of these compounds:
1. COCc1nc(C(=O)N2CCCCC2Cn2cc(C)cn2)cs1 (stereo not drawn)
2. CN1CCCC(c2cccc(Cc3ccccc3Cl)n2)C1 (stereo not drawn)
3. CN(C)c1ccc(CCCNC(=O)Nc2ccc(C#N)cc2)cc1
4. CC(c1nc(C2CC2)no1)N1CCN(c2ccc(C#N)cn2)CC1 (stereo not drawn)

6.8
5.26
72
10.8

For record Cn1nc(C2CCCN(C(=O)CO)C2)cc1O (stereo not drawn) the listed Percent Effect is -6.44

====

- SUBJECT_OF_TEST: Chromo domain-containing protein 1 (Saccharomyces cerevisiae (strain ATCC 204508 / S288c) (Baker's yeast)) (UniProt P32657)
- Sequence (P32657 whole entry, the tested form may be a part): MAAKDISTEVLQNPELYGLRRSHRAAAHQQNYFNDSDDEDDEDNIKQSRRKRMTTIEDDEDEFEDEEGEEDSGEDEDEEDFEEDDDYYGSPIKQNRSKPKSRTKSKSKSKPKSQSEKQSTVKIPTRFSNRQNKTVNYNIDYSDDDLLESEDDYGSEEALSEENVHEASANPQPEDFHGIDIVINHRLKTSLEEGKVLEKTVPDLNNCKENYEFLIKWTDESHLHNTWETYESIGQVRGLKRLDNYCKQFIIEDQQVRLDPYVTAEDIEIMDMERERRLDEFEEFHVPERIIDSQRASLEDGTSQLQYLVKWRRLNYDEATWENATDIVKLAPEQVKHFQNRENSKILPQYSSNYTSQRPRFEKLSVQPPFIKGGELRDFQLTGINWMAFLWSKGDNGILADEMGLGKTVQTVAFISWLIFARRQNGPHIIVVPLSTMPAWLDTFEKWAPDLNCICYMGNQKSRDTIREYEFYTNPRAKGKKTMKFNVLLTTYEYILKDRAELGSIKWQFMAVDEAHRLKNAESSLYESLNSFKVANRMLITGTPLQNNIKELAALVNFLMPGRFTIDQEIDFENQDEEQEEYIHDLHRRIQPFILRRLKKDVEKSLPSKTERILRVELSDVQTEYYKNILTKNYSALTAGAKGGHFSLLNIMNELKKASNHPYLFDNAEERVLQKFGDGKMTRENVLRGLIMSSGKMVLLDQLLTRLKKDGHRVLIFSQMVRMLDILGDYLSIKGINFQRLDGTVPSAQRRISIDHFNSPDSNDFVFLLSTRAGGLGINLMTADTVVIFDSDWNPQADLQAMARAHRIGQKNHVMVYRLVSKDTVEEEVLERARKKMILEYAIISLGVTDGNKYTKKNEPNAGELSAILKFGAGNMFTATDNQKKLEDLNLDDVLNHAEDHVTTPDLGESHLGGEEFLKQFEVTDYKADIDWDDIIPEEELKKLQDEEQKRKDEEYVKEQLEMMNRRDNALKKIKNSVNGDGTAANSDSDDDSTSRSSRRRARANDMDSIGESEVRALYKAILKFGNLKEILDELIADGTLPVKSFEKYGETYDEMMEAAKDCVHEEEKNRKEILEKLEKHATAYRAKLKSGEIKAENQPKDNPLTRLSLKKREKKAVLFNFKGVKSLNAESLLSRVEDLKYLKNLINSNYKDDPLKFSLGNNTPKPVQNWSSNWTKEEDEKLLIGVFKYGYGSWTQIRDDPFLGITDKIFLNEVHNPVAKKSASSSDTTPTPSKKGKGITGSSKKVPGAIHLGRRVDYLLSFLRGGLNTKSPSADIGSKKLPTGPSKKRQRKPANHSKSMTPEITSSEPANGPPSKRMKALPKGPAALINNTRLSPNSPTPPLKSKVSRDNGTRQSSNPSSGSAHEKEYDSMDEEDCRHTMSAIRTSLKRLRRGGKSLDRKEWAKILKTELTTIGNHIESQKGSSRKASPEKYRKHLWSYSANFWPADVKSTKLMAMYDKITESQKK
- ASSAY_SUMMARY: ScCHD-1 Enzyme Inhibition Assay; also: in the data most compounds retested in dose-response had high values
- Assay type: functional
- Set-up: scale not given: direction of the effect not stated beside the values
- CONDITION_LABEL: 30 µM
READOUT_KIND: Percent Effect (%)
One number for each entry, in %.

List reported Percent Effect for each of these compounds:
1. Cc1nc(C)n(CC2CCCN(c3ncnc4sccc34)C2)n1 (stereo not given)
2. O=c1c2ccccc2nc2n1CCN(Cc1cccs1)CC2
3. O=C([C@@H]1COC[C@H]2CN(C3CCOCC3)C[C@H]21)N1CCCCO1
4. COc1ccc(-c2nc(CN3CCOCS3(=O)=O)c(C)o2)cc1
5. CN1CCc2cc(C(CNS(=O)(=O)c3cccs3)N3CCCC3)ccc21 (stereo not given)
6. Cc1nc(C)n(CC2CN(CCc3ccncc3)CCO2)n1 (stereo not given)
7. CCc1ccc(NC(=O)N2C[C@H]3C[C@H](C(=O)NC)[C@@H](C2)O3)cc1
8. Cc1ncc(CN2Cc3ccccc3O[C@]3(CC[C@H](CO)CC3)C2)cn1

-6.06
-12.4
-6.62
-5.54
-8.44
-5.67
93.4
-4.96

List reported Percent Effect for each of these compounds:
1. CN(C)c1cc(C(=O)NCCc2n[nH]c(=O)[nH]2)ccn1
2. CCc1nc(CN2CCCN(C(=O)CCc3ccco3)CC2)cs1
3. O=C(COc1ccc2c(c1)CCC2)N1CCOCC1c1ncon1 (stereo not given)
4. CC(=O)c1cc(CC(=O)NCc2ccc(CN(C)C)cc2)cs1
5. Cc1nc(C2CCCN(C(=O)c3ccc(N4CCCC4)nc3)C2)no1 (stereo not given)
6. O=C([C@H]1C[C@H]2OCC[C@H]2N(C(=O)C2CCOCC2)C1)N1CCCCO1
7. COCCCC(=O)NS(=O)(=O)c1ccc2c(c1)OCCCO2
8. O=C(c1ccc2c(c1)COC2)N1CCN(CC2CC2)CC1

[-2.56, -32.7, -2.72, -2.09, -26.5, -6.17, 4.1, 1.49]

List reported Percent Effect for each of these compounds:
1. O=C(NCCc1c[nH]cn1)c1ccc2c(c1)C(=O)N(C1CC1)C2=O
2. O=C(NCC1CC1)[C@H]1CC[C@@H]2[C@@H](CCN2Cc2ccoc2)O1
3. Cc1oncc1C(=O)N1CCC2(CCN(Cc3ccccn3)C2=O)C1 (stereo not given)
4. CN1CCc2nc(C3CCN(C(=O)CCC4CCCC4)CC3)ncc2C1

1. -4.66
2. -12.2
3. -0.071
4. -8.54

List reported Percent Effect for each of these compounds:
1. COc1cccc2c1OCC(CNC(=O)CCCN1CCOCC1)C2 (stereo not given)
2. CCc1csc(C2CCCN(C(=O)c3ccc(OC)nn3)C2)n1 (stereo not given)
3. Cc1ncc(CN(C)CC2CCCN2c2cccnn2)s1 (stereo not given)
4. Cc1nnc(NCC2(c3ccc(Cl)cc3Cl)CCOCC2)c(C#N)c1C

1. -5.59
2. -7.71
3. -37.9
4. -12.2

====

I'd be grateful if you could share measured Percent Effect for these entries.
- Test system: Trypanosoma cruzi
- ASSAY_SUMMARY: Trypanosoma cruzi phosphomannomutase and mannose-1-phosphate guanylyltransferase assay
- Type: functional
- Parameters: scale not given: direction of the effect not stated beside the values
- CONDITION_LABEL: 10 µM
Give bare numbers, in %.

List reported Percent Effect for each of these compounds:
1. CNS(=O)(=O)c1cccc(C(C)NCc2cccc(OC)c2)c1 (centres undefined)
2. Cc1c[nH]cc1C(=O)N1CCN(Cc2nc(C(C)C)no2)CC1

[-4.3, -3.81]

List reported Percent Effect for each of these compounds:
1. Cn1c(Nc2cn[nH]c2)c(C#N)c(=O)n(C)c1=O
2. CC(C)C(=O)NCC(=O)N(C)C1CCCN(C2Cc3ccccc3C2)C1 (centres undefined)
3. CS(=O)(=O)N1CCc2c(cccc2NC(=O)CC(F)(F)F)C1
4. CN(C)Cc1nnc(C2CCN(c3nccc(N)n3)CC2)n1C1CC1
5. CN(C)C(=O)[C@@H]1CCO[C@@H]2CCN(CCc3ccccc3)C[C@@H]21

1. -8.31
2. -3.48
3. -2.04
4. 1.26
5. 2.15

List reported Percent Effect for each of these compounds:
1. O=C(NCC1CCOCC1)[C@H]1C[C@@H]2CCN(Cc3ccncc3)C[C@@H]2O1
2. Cc1nn(C)c(C)c1-c1cncc(C2CCN(S(C)(=O)=O)CC2)n1

1: 3.28; 2: -1.77

====

- SUBJECT_OF_TEST: Protein translocase subunit SecA (Escherichia coli (strain K12))
- ASSAY_SUMMARY: Assay to Identify E. coli SecA ATPase Inhibitors
- Format: functional
- Parameters: scale not given: direction of the effect not stated beside the values
- CONDITION_LABEL: 30 µM
Potency and affinity values are given separately.
READOUT_KIND: Percent Effect (%)
One number for each entry, in %.

Worked set:
Cc1ccoc1C(=O)N1C[C@@H]2[C@@H](C1)OCC(=O)N2Cc1cccnc1
-4.32
COCC(=O)N1CCC(c2noc3nc(C)cc(C(F)(F)F)c23)CC1
-6.46
CN(C)S(=O)(=O)c1ccc(CN2CCCC2c2ccccc2)o1 (centres undefined)
-4.81

List reported Percent Effect for each of these compounds:
1. CC1CCN(C(=O)c2ccn(COc3ccc(F)cc3)n2)CC1
2. CS(=O)(=O)N1CC[C@H]2[C@H](C[C@@H](Cn3cncn3)N2CC2CC2)C1
3. O=S(=O)(NC1=NCN(CCc2cccs2)CN1)c1ccc(F)cc1

1: -1.66; 2: -6.68; 3: 1.07

List reported Percent Effect for each of these compounds:
1. CN(C)c1cc2c(nn1)CCN(C(=O)C1CCc3ccccc31)C2 (centres undefined)
2. Cc1ccc(N2CCCC3(COCCN(c4nccs4)C3)C2)nn1 (centres undefined)
3. O=S(=O)(Cc1ccccc1)NCc1ccco1

-6.92
0.955
-2.2

From: ChEMBL document CHEMBL3988442
